Test system: tet operator sequence
Assay: β-galactosidase activity of a tetracycline-regulated promoter in transformed E. coli with revTetR, in the presence and absence of anhydrotetracycline (atc)
Assay type: cell-based, Escherichia coli
Settings: RevTetR isolate cultured in the presence of anhydrotetracycline (ATC)
quantity: β-Galactosidase Activity, Cultured With ATC
Number, no unit, nothing else.

TetRrevAF2/14: revTetR(BD) L14L E15A L16L L17V N18N; V20V G96V (protein, Modified tetracycline repressor, revTetR(BD) L14L E15A L16L L17V N18N; V20V G96V) MSRLDKSKVINSALALVNEVGIEGLTTRKLAQKLGVEQPTLYWHVKNKRALLDALAVEILARHHDYSLPAAGESWQSFLRNNAMSFRRALLRYRDVAKVHLGTRPDEKQYDTVETQLRFMTENGFSLRDGLYAISAVSHFTLGAVLEQQEHTAALTDRPAAPDENLPPLLREALQIMDSDDGEQAFLHGLESLIRGFEVQLTALLQIV :: 1.239

Then there is this molecule:
Sample TetRrevAtc4-53: revTetR(BD) D53F L55M I59S H63Q (protein, Modified tetracycline repressor, revTetR(BD) D53F L55M I59S H63Q) MSRLDKSKVINSALELLNEVGIEGLTTRKLAQKLGVEQPTLYWHVKNKRALLFAMAVESLARQHDYSLPAAGESWQSFLRNNAMSFRRALLRYRDGAKVHLGTRPDEKQYDTVETQLRFMTENGFSLRDGLYAISAVSHFTLGAVLEQQEHTAALTDRPAAPDENLPPLLREALQIMDSDDGEQAFLHGLESLIRGFEVQLTALLQIV ; β-Galactosidase Activity, Cultured With ATC observed: 6.945
